Documented % inhibition of HUI77 binding to dn-collagen IV, peptide 1000 µM across a set of binders
SYSTEM_NAME: HUI77, murine IgM anti-denatured-collagen monoclonal antibody
ASSAY_NAME: competition ELISA on coated dn-collagen IV
Square brackets hold non-standard residues; d marks the D form. Ends that are not written are not given here. Hyp = O=C(O)[C@@H]1C[C@@H](O)CN1
Don't forget the unit after the number, please.

## Input Tell me % inhibition of HUI77 binding to dn-collagen IV, peptide 1000 µM reported for LPGP[Hyp]GP[Hyp]GP [synthetic peptide No. 5, … (SEQ ID NO: 20)]
## Output 73%

## Input Tell me % inhibition of HUI77 binding to dn-collagen IV, peptide 1000 µM reported for LPGPPGPPG (also: hydroxyproline at marked P positions, if any, marking lost) [synthetic peptide No. 18, … (SEQ ID NO: 22)]
## Output 6%

## Input Tell me % inhibition of HUI77 binding to dn-collagen IV, peptide 1000 µM reported for CTWPRHHTTDALL [non-collagen control peptide No. 6, … (SEQ ID NO: 39)]
## Output 6.5%

## Input Tell me % inhibition of HUI77 binding to dn-collagen IV, peptide 1000 µM reported for L[Hyp]GL[Hyp]G [synthetic peptide No. 14, LPGLPG (SEQ ID NO: 25)]
## Output 17.5%

## Input Tell me % inhibition of HUI77 binding to dn-collagen IV, peptide 1000 µM reported for GPPGPPG (also: hydroxyproline at marked P positions, if any, marking lost) [synthetic peptide No. 23, GPPGPPG (SEQ ID NO: 33)]
## Output 1%

## Input Tell me % inhibition of HUI77 binding to dn-collagen IV, peptide 1000 µM reported for LPGP[Hyp]GP[Hyp]G [synthetic peptide No. 20, … (SEQ ID NO: 21)]
## Output 86%
